target: T1, cynomolgus GITR (cyGITR), soluble analyte (cynomolgus); experiment: SPR (Biacore T200), 37 C; antibody captured on anti-human Fc chip, GITR as analyte; 1:1 Langmuir fit
T1 construct: Soluble analyte in SPR; construct not described; also called cGITR
Please respond with reported koff for every item in the list.
Report as a plain number; the unit s⁻¹ is understood.

Prompt: Give the reported koff for this binder. h10H2 AM (antibody, V domains shown, Whole IgG captured on an anti-human Fc chip) VH: QVQLVQSGAEVKKPGSSVKVSCKASGGTFSRYWIEWVRQAPGQGLEWMGEILPGSGVTFENEKFKGRVTITADESTSTAYMELSSLRSEDTAVYYCARKGRYYAMDYWGQGTLVTVSS VL: EIVLTQSPGTLSLSPGERATLSCRASQSIGTSIHWYQQKPGQAPRLLIYYASESVSGIPDRFSGSGSGTDFTLTISRLEPEDFAVYYCQQTYSWPATFGQGTKVEIK
Response: 0.011

Prompt: Give the reported koff for this binder. m10H2 (antibody, V domains shown, In ADCC it is called hIgG1; also called anti-human GITR antibody m10H2; A647 labeled m10H2) VH: QVQLQQSGAELMKPGASVKISCTATGYTISRYWIEWVKQRPGHGLEWIGEILPGSGVTNYNEKFKGKATFTADTSSNTAYMQLSSLTSEDSAVYSCARKGTYYAMDYWGQGTSVTVSS VL: DILLTQSPAILSVSPGERVSFSCRASQSIGTSIHWYQQRTNGSPRLLIKYASESVSGIPSRFSGSGSGTDFTLFINSVESEDIADYYCQQTYSWPATFGAGTKLELK
Response: 0.0073

Prompt: Give the reported koff for this binder. h3G7 AM (antibody, V domains shown, Whole IgG captured on an anti-human Fc chip) VH: QVQLVQSGAEVKKPGASVKVSCKASGYTFTGATMNWVRQAPGQGLEWMGLINPYNGGIRYNQKFKGRVTMTRDTSTSTVYMELSSLRSEDTAVYYCARIGGYYDSMDYWGQGTLVTVSS VL: DIQMTQSPSSLSASVGDRVTITCRASESVDPRGINFLNWYQQKPGKAPKLLIYAASNQAKGVPSRFSGSGSGTDFTLTISSLQPEDFATYYCQQALELPWTFGGGTKVEIK
Response: 0.0088

Prompt: Give the reported koff for this binder. h3G7 R5 (antibody, V domains shown, Only variable domains are tied to this name) VH: QVQLVQSGAEVKKPGASVKVSCKASGYTFTGATMNWVRQAPGQGLEWMGLINPYTGGIRYNQKFKGRVTMTRDTSTSTVYMELSSLRSEDTAVYYCARIGGYYDSMDYWGQGTLVTVSS VL: DIQMTQSPSSLSASVGDRVTITCRASESVEPRGINFLNWYQQKPGKAPKLLIYAASQASKGVPSRFSGSGSGTDFTLTISSLQPEDFATYYCQQALELPWTFGGGTKVEIK
Response: 0.0038
